Test system: P388
experimental-details: Cytotoxicity against mouse P388 cells
Format: functional
condition-details: read-out: ED50 (the source's name)
Can you tell me pEC50 for the items I'm about to list?
Numbers only, as −log10 of the molar value.

A selection of reference data follows.
[[record]]
sample_smiles = "CO[C@H](C(=O)[C@@H](O)[C@@H](C)O)[C@@H]1Cc2cc3cc(O[C@H]4C[C@@H](O[C@@H]5C[C@@H](O)[C@H](O)[C@@H](C)O5)[C@H](O)[C@@H](C)O4)c(C)c(O)c3c(O)c2C(=O)[C@H]1O[C@H]1C[C@@H](O[C@@H]2C[C@@H](O)[C@@H](O[C@@H]3C[C@](C)(O)[C@H](O)[C@@H](C)O3)[C@@H](C)O2)[C@H](O)[C@@H](C)O1"
system_under_test = "P388"
assay_endpoint = "pEC50"
quantitative_result = 6.82

[[record]]
sample_smiles = "C=C1[C@H](O)C[C@@H]2[C@@H]3[C@H](C(C)C)CC[C@@]2(C)[C@@H]13"
system_under_test = "P388"
assay_endpoint = "pEC50"
quantitative_result = 4.79

[[record]]
sample_smiles = "CC(C)CCC(=O)[C@@H](C)[C@H]1CC[C@H]2[C@@H]3CC[C@H]4CC(=O)C=C[C@]4(C)[C@H]3CC[C@]12C"
system_under_test = "P388"
assay_endpoint = "pEC50"
quantitative_result = 5.05


Consider now this further compound.
Exercise: Any idea what pEC50 was measured for CC(C)C/C=C/[C@@H](C)[C@H]1CC[C@H]2[C@@H]3CC[C@H]4CC(=O)C=C[C@]4(C)[C@H]3CC[C@]12C ?
Solution: 5.01

* * *

Test system: P388
experimental-details: Cytotoxicity against mouse P388 cells
Type: functional
condition-details: read-out: ED50 (the source's name)
pEC50: −log10 of the molar value.
Can you tell me pEC50 for the items I'm about to list?

A selection of reference data follows.
[[record]]
sample_smiles = "C=C1C[C@H](O)[C@@H]2[C@@H]3[C@H](C(C)C)CC[C@@]2(C)[C@@H]13"
system_under_test = "P388"
result = "< 4.30"

[[record]]
sample_smiles = "C=C(CC[C@@H](C)[C@H]1CC[C@H]2[C@@H]3CC[C@H]4CC(=O)C=C[C@]4(C)[C@H]3CC[C@]12C)C(C)C"
system_under_test = "P388"
result = "< 4.00"

[[record]]
sample_smiles = "CC1=CC(=O)[C@@H]2[C@@H]3[C@H](C(C)C)CC[C@@]2(C)[C@@H]13"
system_under_test = "P388"
result = "< 4.30"

[[record]]
sample_smiles = "CC1=C[C@H](O)[C@@H]2[C@@H]3[C@H](C(C)C)CC[C@@]2(C)[C@@H]13"
system_under_test = "P388"
result = "< 4.30"


Exercise: Any idea what pEC50 was measured for CC(C)C/C=C/[C@@H](C)[C@H]1CC[C@H]2[C@@H]3CCC4=CC(=O)C=C[C@]4(C)[C@H]3CC[C@]12C ?
Solution: < 4.00
